Target: T1, interleukin-23 receptor (IL-23R), Q5VWK5
T1 chain: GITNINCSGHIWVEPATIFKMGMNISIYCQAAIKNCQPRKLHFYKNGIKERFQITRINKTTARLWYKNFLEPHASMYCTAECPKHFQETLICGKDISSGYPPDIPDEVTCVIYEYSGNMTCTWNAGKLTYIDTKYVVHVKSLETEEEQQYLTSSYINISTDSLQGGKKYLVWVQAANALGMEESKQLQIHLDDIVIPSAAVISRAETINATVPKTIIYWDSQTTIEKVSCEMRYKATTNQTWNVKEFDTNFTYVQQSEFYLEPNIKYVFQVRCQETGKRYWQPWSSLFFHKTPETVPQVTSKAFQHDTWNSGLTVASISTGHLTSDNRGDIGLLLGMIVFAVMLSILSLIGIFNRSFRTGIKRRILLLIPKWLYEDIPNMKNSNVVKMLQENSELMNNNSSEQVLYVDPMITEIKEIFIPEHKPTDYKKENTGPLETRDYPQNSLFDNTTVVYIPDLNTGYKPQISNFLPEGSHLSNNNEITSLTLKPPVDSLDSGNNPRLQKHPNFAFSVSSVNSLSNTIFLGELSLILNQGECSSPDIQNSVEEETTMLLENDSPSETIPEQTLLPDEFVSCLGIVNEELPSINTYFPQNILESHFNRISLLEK
Test: cell-based or functional assay
Positions of bridges follow the written chain, without caps; N, C: chain ends. Non-standard residues stand in square brackets, D forms with d. No end group written: not given here. 2Nal(6-OH) = N[C@@H](Cc1ccc2cc(O)ccc2c1)C(=O)O; Trp(7-Me) = Cc1cccc2c(C[C@H](N)C(=O)O)c[nH]c12; AEF = NCCOc1ccc(C[C@H](N)C(=O)O)cc1; 3Pal = N[C@@H](Cc1cccnc1)C(=O)O; Pen = CC(C)(S)[C@H](N)C(=O)O; dDab = NCC[C@@H](N)C(=O)O; lipid = not defined here; Thp = NC1(C(=O)O)CCOCC1; Abu = CC[C@H](N)C(=O)O; Sar = CNCC(=O)O
recorded.metric: IL23R Reporter Assay IC50

Below are worked cases with known answers.
binder	IL23R Reporter Assay IC50
[dDab](Ac)[Abu]NTWQC[AEF][2Nal(6-OH)][Thp]CN[3Pal][Sar] (not fully specified (bridges); ends and bridges not checked) [SEQ ID NO: 413]	< 0.01 µM
[Pen]K(lipid)T[Trp(7-Me)]K(Ac)[Pen][2‑amino‑3‑(4-(2-aminoethoxy)phenyl)propanoic acid][2‑amino‑3‑(6-hydroxynaphthalen-2-yl)propanoic acid][Thp]EN[3Pal][Sar] (disulfide 1-6 (inferred); ends not checked; also: K2: lipidated lysine) [SEQ ID NO: 276]	> 0.1 µM

The record that follows has no IL23R Reporter Assay IC50 shown yet.
Problem: Report IL23R Reporter Assay IC50 for R[Pen]ET[Trp(7-Me)]K(Ac)[Pen][AEF][2Nal(6-OH)][Thp]K(Ac)N[3Pal][Sar] (not fully specified (bridges); ends and bridges not checked) [SEQ ID NO: 422] please.
Result: < 0.01 µM
